Hello, the source for this data is ChEMBL document CHEMBL5143647, in case you need it.

experiment_description: Drug excretion in Sprague-Dawley rat feces at 10 mg/kg, po measured for 24 hrs by liquid chromatography-tandem mass spectrometry relative to control
Type: ADME, organism-based
assay_context: faeces, read-out: Drug excretion
measured_quantity: dose excreted at 24 h (%)
Give just the number in %; leave the unit off.

For the compound "CCN([C@H]1CC[C@H](C(=O)NCCOCCOCCOCCO)CC1)S(=O)(=O)c1cccc(C(=O)Nc2ccc(N3CCCCC3)nc2C(=O)Nc2ccc(CCc3ccc(C(=O)O)cc3)cc2)c1" , what dose excreted at 24 h is on record?
99.1

###

experiment_description: Oral bioavailability in Sprague-Dawley rat at 10 mg/kg measured for 24 hrs by liquid chromatography-tandem mass spectrometry relative to control
Format: ADME, organism-based
assay_context: in vivo
measured_quantity: bioavailability
Kindly report the value followed by its unit.

For "CCN([C@H]1CC[C@H](C(=O)NCCOCCOCCOCCO)CC1)S(=O)(=O)c1cccc(C(=O)Nc2ccc(N3CCCCC3)nc2C(=O)Nc2ccc(CCc3ccc(C(=O)O)cc3)cc2)c1" , what is its reported bioavailability?
2.7%

###

experiment_description: Solubility in FaSSIF at pH 6.6 incubated for 25 degC for 2 hrs further incubated water bath at 35 degC for 22 hrs by HPLC analysis
Type: physicochemical
measured_quantity: solubility at 24 h (µg/mL)
Number in µg/mL, nothing else.

Looking for the measured solubility at 24 h of "CCN([C@H]1CC[C@H](C(=O)NCCOCCOCCOCCO)CC1)S(=O)(=O)c1cccc(C(=O)Nc2ccc(N3CCCCC3)nc2C(=O)Nc2ccc(CCc3ccc(C(=O)O)cc3)cc2)c1" , can you help?
20.5

###

# Lookup of reported pIC50 keyed by entry
experimental_target: UniProtKB O95436
Sequence (O95436 whole entry): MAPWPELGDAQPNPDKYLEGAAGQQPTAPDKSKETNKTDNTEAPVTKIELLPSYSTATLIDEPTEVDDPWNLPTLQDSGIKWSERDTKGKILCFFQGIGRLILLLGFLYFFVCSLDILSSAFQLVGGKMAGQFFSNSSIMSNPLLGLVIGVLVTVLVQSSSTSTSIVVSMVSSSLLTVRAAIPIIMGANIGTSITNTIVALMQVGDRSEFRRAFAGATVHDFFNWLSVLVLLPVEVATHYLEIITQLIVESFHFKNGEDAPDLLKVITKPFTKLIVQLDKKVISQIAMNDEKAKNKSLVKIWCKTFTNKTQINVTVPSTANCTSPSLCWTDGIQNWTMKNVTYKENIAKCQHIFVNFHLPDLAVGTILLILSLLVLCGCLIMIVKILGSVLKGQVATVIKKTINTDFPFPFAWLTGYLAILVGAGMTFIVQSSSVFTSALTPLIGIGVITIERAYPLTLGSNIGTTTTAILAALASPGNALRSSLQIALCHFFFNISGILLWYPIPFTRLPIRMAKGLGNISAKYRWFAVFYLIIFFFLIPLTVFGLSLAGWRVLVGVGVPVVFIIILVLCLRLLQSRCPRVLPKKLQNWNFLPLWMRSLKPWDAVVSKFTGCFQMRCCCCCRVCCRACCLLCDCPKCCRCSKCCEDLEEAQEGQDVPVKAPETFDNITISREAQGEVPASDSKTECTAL
experiment_description: Inhibition of human NaPi2b stably expressed in CHO-K1 cells assessed as reduction in H2[33P]O4 uptake incubated for 30 mins by liquid scintillation counting method
Worth noting: pIC50 values are minus log10 of concentrations stated in mol/L.

Record excerpt, results attached:
Quick check: pIC50 of "CCC(CC)N(CCN(C)C(=O)CCC(=O)O)Cc1cccc(C(=O)Nc2ccc(N3CCCCC3)nc2C(=O)Nc2ccc(Oc3ccc(C(=O)O)cc3)cc2)c1" ?
6.79

Item: "CCC(CC)N(CCN(C)C(=O)CCC(=O)O)Cc1cccc(C(=O)Nc2ccc(N3CCCCC3)nc2C(=O)Nc2ccc(Oc3ccc(C(=O)O)cn3)cc2)c1"
6.15

Below: the item to evaluate.
Entry "CCC(CC)N(CCN(C)C(=O)CCC(=O)O)Cc1cccc(C(=O)Nc2ccc(N3CCOCC3)nc2C(=O)Nc2ccc(CCc3ccc(C(=O)O)cc3)cc2)c1" has what pIC50?
6.69
